Assay: MTT proliferation / drug combination assay
Format: cell-based, Canine
Conditions: dog, MDCKII-ABCG2 cells; MDCKII-ABCG2; comparative MTT, 48 h; read-out: antiproliferative IC50
VALUE TYPE: IC50 at 48 h (µM)

• Cn1ncnc1[C@H]1c2n[nH]c(=O)c3cc(F)cc(c23)N[C@@H]1c1ccc(F)cc1 [talazoparib, Talazoparib] = 64.5

---

Assay: MTT proliferation / drug combination assay
Assay type: cell-based, Canine
Conditions: dog, MDCKII-ABCG2 cells; read-out: IC50
VALUE TYPE: IC50 at 48 h (µM)

• O=C1c2c(O)ccc(O)c2C(=O)c2c(NCCNCCO)ccc(NCCNCCO)c21 = 12.1

---

Target: ABCB1 (Homo sapiens, UniProt P08183)
Sequence (P08183 whole entry): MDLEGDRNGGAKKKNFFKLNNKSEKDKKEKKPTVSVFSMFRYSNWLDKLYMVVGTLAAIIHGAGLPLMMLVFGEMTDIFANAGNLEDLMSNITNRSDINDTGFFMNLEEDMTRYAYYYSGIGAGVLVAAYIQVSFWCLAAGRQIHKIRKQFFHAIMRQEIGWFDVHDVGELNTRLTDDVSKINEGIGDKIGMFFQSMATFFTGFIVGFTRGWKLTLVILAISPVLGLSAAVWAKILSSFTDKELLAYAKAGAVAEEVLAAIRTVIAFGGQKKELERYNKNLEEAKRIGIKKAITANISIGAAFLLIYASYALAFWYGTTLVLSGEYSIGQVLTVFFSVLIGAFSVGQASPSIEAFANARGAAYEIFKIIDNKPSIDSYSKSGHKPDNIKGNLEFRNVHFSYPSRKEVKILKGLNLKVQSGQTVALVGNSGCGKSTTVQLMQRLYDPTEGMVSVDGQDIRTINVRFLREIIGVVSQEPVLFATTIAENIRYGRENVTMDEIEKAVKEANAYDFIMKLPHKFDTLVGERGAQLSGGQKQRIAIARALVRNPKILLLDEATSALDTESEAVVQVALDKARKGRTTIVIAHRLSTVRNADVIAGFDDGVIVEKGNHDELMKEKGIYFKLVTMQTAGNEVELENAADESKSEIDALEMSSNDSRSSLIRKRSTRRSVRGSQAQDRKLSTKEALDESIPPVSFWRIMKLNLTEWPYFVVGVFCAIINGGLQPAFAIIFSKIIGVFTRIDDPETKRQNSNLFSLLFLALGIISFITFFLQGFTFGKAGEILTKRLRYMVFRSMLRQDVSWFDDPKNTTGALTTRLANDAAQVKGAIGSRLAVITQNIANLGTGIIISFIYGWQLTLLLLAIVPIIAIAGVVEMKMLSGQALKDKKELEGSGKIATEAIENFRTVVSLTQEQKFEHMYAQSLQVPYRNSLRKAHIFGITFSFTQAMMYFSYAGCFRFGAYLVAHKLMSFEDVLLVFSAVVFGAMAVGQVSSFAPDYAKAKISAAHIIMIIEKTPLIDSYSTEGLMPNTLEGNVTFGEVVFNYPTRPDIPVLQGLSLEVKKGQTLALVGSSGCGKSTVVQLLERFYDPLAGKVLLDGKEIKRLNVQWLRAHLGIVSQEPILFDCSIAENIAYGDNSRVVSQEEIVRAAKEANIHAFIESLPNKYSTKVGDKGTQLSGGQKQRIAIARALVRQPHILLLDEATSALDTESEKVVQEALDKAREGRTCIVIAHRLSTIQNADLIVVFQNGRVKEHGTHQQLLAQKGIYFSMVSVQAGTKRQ
Assay: Accumulation assay with daunorubicin in MDCKII-ABCB1 cells
Details: read-out: ABCB1 inhibition IC50
VALUE TYPE: IC50

• Cn1ncnc1[C@H]1c2n[nH]c(=O)c3cc(F)cc(c23)N[C@@H]1c1ccc(F)cc1 [talazoparib, Talazoparib] = > 50 µM

---

System: A431-ABCB1
Assay: MTT proliferation assay
Format: cell-based
Settings: Homo sapiens, comparative MTT, 48 h, read-out: antiproliferative IC50
pIC50: −log10 of the molar value.
VALUE TYPE: pIC50

* Cn1ncnc1[C@H]1c2n[nH]c(=O)c3cc(F)cc(c23)N[C@@H]1c1ccc(F)cc1 [talazoparib, Talazoparib] | 4.03

---

Target: CYP2D6 (Homo sapiens, UniProt P10635)
Sequence (P10635 whole entry): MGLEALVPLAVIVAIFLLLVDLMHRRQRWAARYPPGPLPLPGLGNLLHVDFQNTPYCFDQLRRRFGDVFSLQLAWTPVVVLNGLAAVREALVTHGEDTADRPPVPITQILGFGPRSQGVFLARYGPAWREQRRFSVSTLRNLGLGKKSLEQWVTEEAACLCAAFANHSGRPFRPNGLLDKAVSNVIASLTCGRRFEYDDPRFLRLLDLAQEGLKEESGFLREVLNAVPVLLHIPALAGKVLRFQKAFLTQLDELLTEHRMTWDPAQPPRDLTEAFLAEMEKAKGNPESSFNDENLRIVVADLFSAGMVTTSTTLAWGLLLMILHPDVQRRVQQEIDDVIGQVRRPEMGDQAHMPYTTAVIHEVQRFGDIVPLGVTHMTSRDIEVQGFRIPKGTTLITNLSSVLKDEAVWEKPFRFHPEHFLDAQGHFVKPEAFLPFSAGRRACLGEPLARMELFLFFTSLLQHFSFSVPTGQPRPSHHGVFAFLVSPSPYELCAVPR
Test: Incubation assay with recombinant CYP (Vivid kit)
Conditions: recombinant enzyme, Vivid substrate
Experimental: Possible interactions of examined PARPi with human CYP3A4, CYP2C8, CYP2D6, CYP1A2, CYP2B6, CYP2C9, CYP2C19, and CYP3A5 were evaluated using commercial Vivid CYP450 Screening Kits. […] CYP isoenzymes were mixed with the NADPH-regeneration system, and resulting solutions were added to the wells. […] Fluorescence corresponding to the levels of produced metabolites was detected using the microplate reader Infinite […] […]
pIC50: −log10 of the molar value.
VALUE TYPE: pIC50

• Cn1ncnc1[C@H]1c2n[nH]c(=O)c3cc(F)cc(c23)N[C@@H]1c1ccc(F)cc1 = < 4.30

---

Target: ABCG2 (Homo sapiens, UniProt Q9UNQ0)
Sequence (Q9UNQ0 1-655): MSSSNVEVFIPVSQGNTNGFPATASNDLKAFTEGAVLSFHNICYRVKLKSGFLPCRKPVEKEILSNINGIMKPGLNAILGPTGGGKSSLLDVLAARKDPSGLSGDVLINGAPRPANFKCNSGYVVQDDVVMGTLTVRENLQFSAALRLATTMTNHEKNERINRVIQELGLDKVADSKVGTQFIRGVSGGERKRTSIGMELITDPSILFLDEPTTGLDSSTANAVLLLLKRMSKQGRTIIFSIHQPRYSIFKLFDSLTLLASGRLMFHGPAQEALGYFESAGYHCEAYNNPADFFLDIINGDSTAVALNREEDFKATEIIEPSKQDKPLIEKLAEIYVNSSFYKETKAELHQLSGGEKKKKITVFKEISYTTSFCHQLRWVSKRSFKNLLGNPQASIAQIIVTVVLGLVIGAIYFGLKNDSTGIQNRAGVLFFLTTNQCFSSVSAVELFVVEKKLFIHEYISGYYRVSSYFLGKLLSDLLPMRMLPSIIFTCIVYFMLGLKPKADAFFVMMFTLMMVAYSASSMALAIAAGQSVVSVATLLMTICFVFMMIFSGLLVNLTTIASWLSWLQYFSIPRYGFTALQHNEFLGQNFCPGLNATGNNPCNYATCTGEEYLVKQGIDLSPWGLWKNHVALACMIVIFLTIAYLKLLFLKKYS
Experiment: Accumulation assay with mitoxantrone in MDCKII-ABCG2 cells
Conditions: normalized to Ko143, read-out: ABCG2 inhibition IC50
VALUE TYPE: IC50 (µM)

- Cn1ncnc1[C@H]1c2n[nH]c(=O)c3cc(F)cc(c23)N[C@@H]1c1ccc(F)cc1 [talazoparib, Talazoparib]: 11.2

---

Target: CYP3A5 (Homo sapiens, UniProt P20815)
Sequence (P20815 whole entry): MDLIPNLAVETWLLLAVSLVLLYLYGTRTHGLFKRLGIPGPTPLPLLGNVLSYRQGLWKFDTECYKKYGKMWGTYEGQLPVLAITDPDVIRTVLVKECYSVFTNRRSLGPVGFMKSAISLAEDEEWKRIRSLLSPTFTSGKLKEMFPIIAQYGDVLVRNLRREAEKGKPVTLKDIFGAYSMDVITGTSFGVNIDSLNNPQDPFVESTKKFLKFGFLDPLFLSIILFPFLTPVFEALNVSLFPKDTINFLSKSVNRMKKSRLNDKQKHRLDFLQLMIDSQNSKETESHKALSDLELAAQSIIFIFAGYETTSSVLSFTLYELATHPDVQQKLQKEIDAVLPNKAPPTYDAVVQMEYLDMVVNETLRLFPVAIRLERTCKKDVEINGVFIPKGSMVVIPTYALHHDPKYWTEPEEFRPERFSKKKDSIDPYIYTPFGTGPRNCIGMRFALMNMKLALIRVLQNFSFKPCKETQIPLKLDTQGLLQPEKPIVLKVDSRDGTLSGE
Experiment: Incubation assay with recombinant CYP (Vivid kit)
Details: recombinant enzyme, Vivid substrate
pIC50: −log10 of the molar value.
VALUE TYPE: pIC50

- Cn1ncnc1[C@H]1c2n[nH]c(=O)c3cc(F)cc(c23)N[C@@H]1c1ccc(F)cc1: < 4.30

---

Target: CYP2C19 (Homo sapiens)
Sequence (P33261 whole entry): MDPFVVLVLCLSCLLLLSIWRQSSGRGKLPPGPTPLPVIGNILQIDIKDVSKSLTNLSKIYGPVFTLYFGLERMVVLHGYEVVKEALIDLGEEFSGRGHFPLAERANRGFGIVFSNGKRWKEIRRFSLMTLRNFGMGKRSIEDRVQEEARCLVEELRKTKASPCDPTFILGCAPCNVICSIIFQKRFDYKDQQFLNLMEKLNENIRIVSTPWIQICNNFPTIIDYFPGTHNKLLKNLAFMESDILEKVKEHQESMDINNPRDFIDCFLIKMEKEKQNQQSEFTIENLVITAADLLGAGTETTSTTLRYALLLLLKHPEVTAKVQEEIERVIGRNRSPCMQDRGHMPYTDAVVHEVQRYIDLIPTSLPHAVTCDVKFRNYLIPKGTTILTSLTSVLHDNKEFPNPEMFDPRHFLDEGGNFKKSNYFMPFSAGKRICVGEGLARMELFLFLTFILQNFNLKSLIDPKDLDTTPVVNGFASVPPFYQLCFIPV
Test: Incubation assay with recombinant CYP (Vivid kit)
Conditions: recombinant enzyme, Vivid substrate
VALUE TYPE: IC50

• Cn1ncnc1[C@H]1c2n[nH]c(=O)c3cc(F)cc(c23)N[C@@H]1c1ccc(F)cc1 = > 50 µM

---

Experiment: MTT proliferation assay
Format: cell-based, Canine
Settings: dog, MDCKII-ABCB1 cells, comparative MTT, read-out: antiproliferative IC50
VALUE TYPE: IC50 at 48 h

* Cn1ncnc1[C@H]1c2n[nH]c(=O)c3cc(F)cc(c23)N[C@@H]1c1ccc(F)cc1 | 67.5 µM

---

Biological target: CYP1A2 (Homo sapiens, UniProt P05177)
Sequence (P05177 whole entry): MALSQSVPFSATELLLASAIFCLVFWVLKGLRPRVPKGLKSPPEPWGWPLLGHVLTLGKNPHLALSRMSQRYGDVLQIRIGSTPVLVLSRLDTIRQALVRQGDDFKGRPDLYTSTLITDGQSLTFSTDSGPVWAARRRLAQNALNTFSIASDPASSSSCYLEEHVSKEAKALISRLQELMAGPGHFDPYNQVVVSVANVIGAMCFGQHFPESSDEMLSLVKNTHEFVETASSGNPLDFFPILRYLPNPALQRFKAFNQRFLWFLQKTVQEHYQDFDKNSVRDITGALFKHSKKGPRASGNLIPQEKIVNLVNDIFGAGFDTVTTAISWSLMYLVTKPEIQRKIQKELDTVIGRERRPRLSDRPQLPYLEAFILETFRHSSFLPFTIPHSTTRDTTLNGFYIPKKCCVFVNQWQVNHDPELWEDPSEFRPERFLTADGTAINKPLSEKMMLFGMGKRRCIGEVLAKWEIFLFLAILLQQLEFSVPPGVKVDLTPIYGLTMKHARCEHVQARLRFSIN
Test: Incubation assay with recombinant CYP (Vivid kit)
Details: recombinant enzyme, Vivid substrate
VALUE TYPE: IC50

• Cn1ncnc1[C@H]1c2n[nH]c(=O)c3cc(F)cc(c23)N[C@@H]1c1ccc(F)cc1 [talazoparib, Talazoparib] = > 50 µM

---

Target: CYP2C9 (Homo sapiens, UniProt P11712)
Sequence (P11712 whole entry): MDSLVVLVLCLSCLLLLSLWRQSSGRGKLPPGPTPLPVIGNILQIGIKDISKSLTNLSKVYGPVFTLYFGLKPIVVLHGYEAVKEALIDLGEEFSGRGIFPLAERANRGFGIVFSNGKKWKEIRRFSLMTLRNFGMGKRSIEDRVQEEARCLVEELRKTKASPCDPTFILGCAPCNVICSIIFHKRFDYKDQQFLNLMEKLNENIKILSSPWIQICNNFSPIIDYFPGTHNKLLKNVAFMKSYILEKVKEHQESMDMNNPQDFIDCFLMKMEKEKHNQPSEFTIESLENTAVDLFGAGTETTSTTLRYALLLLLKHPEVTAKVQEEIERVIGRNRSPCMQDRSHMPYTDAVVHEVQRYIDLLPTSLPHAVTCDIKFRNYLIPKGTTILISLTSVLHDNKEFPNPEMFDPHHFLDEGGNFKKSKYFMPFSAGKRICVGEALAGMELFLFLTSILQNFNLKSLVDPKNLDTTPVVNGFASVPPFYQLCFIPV
Experiment: Incubation assay with recombinant CYP (Vivid kit)
Settings: recombinant enzyme, Vivid substrate
VALUE TYPE: IC50

- Cn1ncnc1[C@H]1c2n[nH]c(=O)c3cc(F)cc(c23)N[C@@H]1c1ccc(F)cc1: > 50 µM

---

Molecular target: CYP2C8 (Homo sapiens)
Sequence (P10632 whole entry): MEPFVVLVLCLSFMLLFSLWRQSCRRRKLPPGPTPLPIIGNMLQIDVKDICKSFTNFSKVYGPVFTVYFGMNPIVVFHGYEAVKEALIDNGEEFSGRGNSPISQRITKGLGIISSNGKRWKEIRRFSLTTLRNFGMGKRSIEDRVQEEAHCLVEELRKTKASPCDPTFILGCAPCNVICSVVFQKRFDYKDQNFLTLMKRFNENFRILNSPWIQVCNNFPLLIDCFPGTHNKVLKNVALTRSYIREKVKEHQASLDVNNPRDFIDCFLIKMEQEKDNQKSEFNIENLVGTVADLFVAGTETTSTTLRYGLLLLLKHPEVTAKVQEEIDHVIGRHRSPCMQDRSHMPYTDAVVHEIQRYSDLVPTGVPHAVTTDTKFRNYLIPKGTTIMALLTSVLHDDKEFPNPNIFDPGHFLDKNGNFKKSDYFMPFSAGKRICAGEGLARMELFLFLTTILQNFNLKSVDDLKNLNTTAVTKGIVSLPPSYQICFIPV
Test: Incubation assay with recombinant CYP (Vivid kit)
Conditions: recombinant enzyme, Vivid substrate
VALUE TYPE: IC50

• Cn1ncnc1[C@H]1c2n[nH]c(=O)c3cc(F)cc(c23)N[C@@H]1c1ccc(F)cc1 [talazoparib, Talazoparib] = > 50 µM
